B1: MED27 (parent)
chain: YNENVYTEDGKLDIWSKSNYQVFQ

variants of: B1; assay: protein stability index of a GFP-peptide fusion (GPS, HEK-293T) (PSI 1-6); higher = more stable; settings: c terminus: a fixed tail appended;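 note: lentivirally expressed fusions sorted by FACS into six bins by GFP to DsRed ratio, PSI derived from sequencing read proportions per bin multiplied by bin number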
Listed variants paired with reported protein stability index
// return a plain number; no unit text

- variant.id: "W15D"
  protein stability index: 4.42
- variant.id: "F23P"
  protein stability index: 2.99
- variant.id: "E8C"
  protein stability index: 2.18

Query: For the variant shown here, N2C , give the reported protein stability index.
Reply: 2.47

Query: For the variant shown here, Q24W , give the reported protein stability index.
Reply: 2.21

Query: For the variant shown here, T7K , give the reported protein stability index.
Reply: 2.35

Query: For the variant shown here, K11I , give the reported protein stability index.
Reply: 2.71

Query: For the variant shown here, N19W , give the reported protein stability index.
Reply: 1.73

Query: For the variant shown here, D9Y , give the reported protein stability index.
Reply: 2.03

Query: For the variant shown here, K11C , give the reported protein stability index.
Reply: 1.78

Query: For the variant shown here, N2G , give the reported protein stability index.
Reply: 1.75
